TEST_TARGET: T1, wild-type human PTH/PTHrP receptor (hP1R-WT) (human, UniProt Q03431 27-593)
T1 sequence (looked up): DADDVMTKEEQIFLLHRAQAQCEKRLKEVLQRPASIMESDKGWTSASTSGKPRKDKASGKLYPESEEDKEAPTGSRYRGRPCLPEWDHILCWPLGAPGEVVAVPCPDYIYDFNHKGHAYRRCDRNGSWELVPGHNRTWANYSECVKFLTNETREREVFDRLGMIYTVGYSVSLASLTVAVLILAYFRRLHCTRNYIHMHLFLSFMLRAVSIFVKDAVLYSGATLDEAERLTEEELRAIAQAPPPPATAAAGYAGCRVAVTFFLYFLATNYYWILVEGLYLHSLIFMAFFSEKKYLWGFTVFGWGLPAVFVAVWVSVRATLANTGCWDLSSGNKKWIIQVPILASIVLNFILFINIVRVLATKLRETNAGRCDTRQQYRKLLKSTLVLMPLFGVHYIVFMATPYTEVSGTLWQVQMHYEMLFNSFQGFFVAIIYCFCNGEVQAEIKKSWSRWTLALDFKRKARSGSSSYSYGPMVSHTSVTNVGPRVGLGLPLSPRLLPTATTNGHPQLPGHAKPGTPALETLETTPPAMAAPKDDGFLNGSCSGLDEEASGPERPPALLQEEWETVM
TEST_NAME: cell-based or functional assay
Square brackets hold non-standard residues; d marks the D form. Ends that are not written are not given here. hArg = N=C(N)NCCCC[C@H](N)C(=O)O; Aib = CC(C)(N)C(=O)O
Below, each entry is listed alongside its reported cAMP EMax(obs.).
MEASURED_ATTRIBUTE: cAMP EMax(obs.) (pmole/well)

| BINDER | VALUE |
| --- | --- |
| AVAEI[Aib]LMHQ[hArg]AKW-NH2 (N-terminus assumed; SMILES CC[C@H](C)[C@H](NC(=O)[C@H](CCC(=O)O)NC(=O)[C@H](C)NC(=O)[C@@H](NC(=O)[C@H](C)N)C(C)C)C(=O)NC(C)(C)C(=O)N[C@@H](CC(C)C)C(=O)N[C@@H](CCSC)C(=O)N[C@@H](Cc1c[nH]cn1)C(=O)N[C@@H](CCC(N)=O)C(=O)N[C@@H](CCCCNC(=N)N)C(=O)N[C@@H](C)C(=O)N[C@@H](CCCCN)C(=O)N[C@@H](Cc1c[nH]c2ccccc12)C(N)=O, Aib scan of [M]PTH(1-14); also called 627 Aib-6) [[Aib^6,M]PTH(1-14)] | 116 |
| [Aib]VAEIQLMHQ[hArg]AKW-NH2 (N-terminus assumed; SMILES CC[C@H](C)[C@H](NC(=O)[C@H](CCC(=O)O)NC(=O)[C@H](C)NC(=O)[C@@H](NC(=O)C(C)(C)N)C(C)C)C(=O)N[C@@H](CCC(N)=O)C(=O)N[C@@H](CC(C)C)C(=O)N[C@@H](CCSC)C(=O)N[C@@H](Cc1c[nH]cn1)C(=O)N[C@@H](CCC(N)=O)C(=O)N[C@@H](CCCCNC(=N)N)C(=O)N[C@@H](C)C(=O)N[C@@H](CCCCN)C(=O)N[C@@H](Cc1c[nH]c2ccccc12)C(N)=O, also called 622 Aib-1) [[Aib^1,M]PTH(1-14)] | 273 |
